system: Pichia kudriavzevii; assay: Antifungal activity against Candida krusei ATCC 6258 assessed as fungal growth inhibition incubated for 18 to 24 hrs by alamar blue assay; format: functional; conditions: Pichia kudriavzevii, ATCC 6258, time 18-24 hrs; read-out: MIC
Assay readout: MIC (µM)

A. CCCCCCCCCCCCCCC1(O)C(C)=C(C)C2=[N+](C/C=C/c3ccccc3)CCCN21 (stereo unspecified)
B. CCCCCCCCCCCCCCC1(O)C(C)=C(C)C2=[N+](CC(=O)NCCCNC(=O)OC(C)(C)C)CCCN21 (stereo unspecified)
Parameter metric = MIC. Return the lower-valued option from A and B . Reply with the label of the item you choose.
A

###

Quick reference for MFC among some compounds
system: Nakaseomyces glabratus; experiment: Fungicidal activity against Candida glabrata ATCC 90030 assessed as fungal growth inhibition incubated for 18 to 24 hrs by alamar blue assay; format: functional; settings: Nakaseomyces glabratus, ATCC 90030, time 18-24 hrs; read-out: MFC
Please respond with the number in µM and leave the unit unwritten.

Use these answered entries as a reference point.
• CCCCCCCCCCCCCCC1(O)C(C)=C(C)C2=[N+](Cc3ccc(F)cc3)CCCN21 (stereo not given) = 2.2
• C=CC[N+]1=C2C(C)=C(C)C(O)(CCCCCCCCCCCCCC)N2CCC1 (stereo not given) = 5.2
• CCCCCCCCCCCCCCC1(O)C(C)=C(C)C2=[N+](Cc3ccc(C#N)cc3)CCCN21 (stereo not given) = 2.1
• CCCCCCCCCCCCCCC1(O)C(C)=C(C)C2=[N+](CC#N)CCCN21 (stereo not given) = 8.7
• CCCCCCCCCCCCCCC1(O)C(C)=C(C)C2=[N+](Cc3cccc(OC)c3)CCCN21 (stereo not given) = 2.1

Enter recorded MFC with Nakaseomyces glabratus for CCCCCCCCCCCCCCC1(O)C(C)=C(C)C2=[N+](Cc3ccccc3)CCCN21 (stereo not given) here.
2.2

Enter recorded MFC with Nakaseomyces glabratus for CCCCCCCCCCCCCCC1(O)C(C)=C(C)C2=[N+](Cc3cnnn3Cc3ccccc3)CCCN21 (stereo not given) here.
4.7

Enter recorded MFC with Nakaseomyces glabratus for `CCCCCCCCCCCCCCc1c(C)c(C)cn1CCCNC` here.
6.9

Enter recorded MFC with Nakaseomyces glabratus for CCCCCCCCCCCCCCC1(O)C(C)=C(C)C2=[N+](CC(=O)c3cccs3)CCCN21 (stereo not given) here.
5.1

Enter recorded MFC with Nakaseomyces glabratus for CCCCCCCCCCCCCCC1(O)C(C)=C(C)C2=[N+](Cc3ccc(OC)cc3)CCCN21 (stereo not given) here.
3
